# Tested On: isolated recombinant JAK2 kinase domain (Homo sapiens, UniProt O60674)
# Construct: isolated recombinant JAK1 and JAK2 kinase domain
# Sequence (O60674 849-1124 limits assumed): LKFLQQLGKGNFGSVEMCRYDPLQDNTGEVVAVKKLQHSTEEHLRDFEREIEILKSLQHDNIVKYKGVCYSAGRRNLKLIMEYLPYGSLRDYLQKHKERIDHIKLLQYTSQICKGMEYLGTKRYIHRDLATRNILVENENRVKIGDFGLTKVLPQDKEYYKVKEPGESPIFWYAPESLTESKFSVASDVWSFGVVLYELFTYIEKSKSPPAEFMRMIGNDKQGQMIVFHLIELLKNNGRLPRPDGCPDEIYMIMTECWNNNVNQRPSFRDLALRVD
# Measurement Protocol: JAK enzyme assay, JAK2 kinase domain (Caliper LabChip)
# Run Conditions: 0.2 nM JAK2, ATP 25 μM, Morrison tight binding model

{"Compound": "N#CCC1(n2cc(Br)cn2)CN(c2cccn3nc(Nc4cnn(CC(=O)N5CCC(N6CCOCC6)CC5)c4)nc23)C1 [Example 130]", "Unit Name": "nM", "Ki": 1.1}
{"Compound": "CCc1cnn(C2(CC#N)CN(c3cccn4nc(Nc5ccc(CC(=O)N6CCN(C)CC6)nc5)nc34)C2)c1 [Example 74]", "Unit Name": "nM", "Ki": 1.8}
{"Compound": "N#CCC1(n2cc(C(F)(F)F)cn2)CN(c2cccn3nc(Nc4ccc(C(=O)N5CCN(C6COC6)CC5)cc4)nc23)C1 [Example 103]", "Unit Name": "nM", "Ki": 1.7}
{"Compound": "CCc1cnn(C2(CC#N)CN(c3cccn4nc(Nc5ccc(C(=O)N6CCN(C)CC6)c(OC)c5)nc34)C2)c1 [Example 106]", "Unit Name": "nM", "Ki": 1.3}
{"Compound": "N#CCC1(n2cc(C(F)(F)F)cn2)CN(c2cccn3nc(Nc4cnn(CCCO)c4)nc23)C1 [Example 136]", "Unit Name": "nM", "Ki": 0.8}
{"Compound": "CCc1cnn(C2(CC#N)CN(c3cccn4nc(Nc5cnn(CC(=O)N6CCC(CN7CCOCC7)CC6)c5)nc34)C2)c1 [Example 53]", "Unit Name": "nM", "Ki": 0.6}
{"Compound": "Cc1ccccc1-c1cnn(C2(CC#N)CN(c3cccn4nc(Nc5cnn(CC(=O)N6CCC(N7CCOCC7)CC6)c5)nc34)C2)c1 [Example 123]", "Unit Name": "nM", "Ki": 1.3}
{"Compound": "N#CCC1(n2cc(C(F)(F)F)cn2)CN(c2cccn3nc(Nc4cnn(CC(=O)N5CCC(N6CCOCC6)CC5)c4)nc23)C1 [Example 96]", "Unit Name": "nM", "Ki": 0.8}
{"Compound": "N#CCC1(c2cccc(Cl)c2)CN(c2cccn3nc(Nc4cnn(CC(=O)N5CCC(NC6COC6)CC5)c4)nc23)C1 [Example 93]", "Unit Name": "nM", "Ki": 0.7}
{"Compound": "CCc1cnn(C2(CC#N)CN(c3cccn4nc(Nc5cnn(CC(=O)N6CCN(C7CCOCC7)CC6)c5)nc34)C2)c1 [Example 31]", "Unit Name": "nM", "Ki": 1.1}
{"Compound": "N#CCC1(n2cc(C(F)(F)F)cn2)CN(c2cccn3nc(Nc4cnn(CC(=O)N5CCN(C6COC6)CC5)c4)nc23)C1 [Example 97]", "Unit Name": "nM", "Ki": 0.8}

---

# Tested On: isolated recombinant JAK2 kinase domain (Homo sapiens, UniProt O60674)
# Construct: isolated recombinant JAK1 and JAK2 kinase domain
# Measurement Protocol: JAK enzyme assay, JAK2 kinase domain (Caliper LabChip)
# Run Conditions: 0.2 nM JAK2, ATP 25 μM, Morrison tight binding model
# Description: JAK Enzyme Assays were Carried Out as Follows: The activity of the isolated recombinant JAK1 and JAK2 kinase domain was measured by monitoring phosphorylation of a peptide derived from JAK3 (Val-Ala-Leu-Val-Asp-Gly-Tyr-Phe-Arg-Leu-Thr-Thr, fluorescently labeled on the N-terminus with 5-carboxyfluorescein) using the Caliper LabChip® technology (Caliper Life Sciences, Hopkinton, Mass.). […]
pKi: −log10 of the molar value.
Readout: pKi

{"Molecule": "CN1CCN(C(=O)Cn2cc(Nc3nc4c(N5CC(CC#N)(Cc6ccccc6)C5)cccn4n3)cn2)CC1", "Tested On": "isolated recombinant JAK2 kinase domain (Homo sapiens, UniProt O60674)", "Endpoint Result": 8.68}
{"Molecule": "CN1CCN(C(=O)Cn2cc(Nc3nc4c(N5CC(CC#N)(N6CCC(F)(F)CC6)C5)cccn4n3)cn2)CC1", "Tested On": "isolated recombinant JAK2 kinase domain (Homo sapiens, UniProt O60674)", "Endpoint Result": 8.62}
{"Molecule": "CCc1cnn(C2(CC#N)CN(c3cccn4nc(Nc5cnn(CC(=O)N6CCN(CCOC)CC6)c5)nc34)C2)c1", "Tested On": "isolated recombinant JAK2 kinase domain (Homo sapiens, UniProt O60674)", "Endpoint Result": 9.70}
{"Molecule": "CN1CCN(C(=O)Cn2cc(Nc3nc4c(N5CC(CC#N)(n6cc(NCC(F)(F)F)cn6)C5)cccn4n3)cn2)CC1", "Tested On": "isolated recombinant JAK2 kinase domain (Homo sapiens, UniProt O60674)", "Endpoint Result": 10.00}
{"Molecule": "CCc1cnn(C2(CC#N)CN(c3cccn4nc(Nc5ccc6c(c5)CCN([C@@H]5CCOC5)C6)nc34)C2)c1 (stereo in doubt)", "Tested On": "isolated recombinant JAK2 kinase domain (Homo sapiens, UniProt O60674)", "Endpoint Result": 9.40}
{"Molecule": "CN1CCN(C(=O)Cn2cc(Nc3nc4c(N5CC(CC#N)(n6cc(CNCC(F)(F)F)cn6)C5)cccn4n3)cn2)CC1", "Tested On": "isolated recombinant JAK2 kinase domain (Homo sapiens, UniProt O60674)", "Endpoint Result": 8.82}
{"Molecule": "CN1CCN(C(=O)Cc2ccc(Nc3nc4c(N5CC(CC#N)(n6cc(C(F)(F)F)cn6)C5)cccn4n3)cc2)CC1", "Tested On": "isolated recombinant JAK2 kinase domain (Homo sapiens, UniProt O60674)", "Endpoint Result": 8.40}
{"Molecule": "CN1CCN(C(=O)Cn2cc(Nc3nc4c(N5CC(CC#N)(n6cc(C#N)cn6)C5)cccn4n3)cn2)CC1", "Tested On": "isolated recombinant JAK2 kinase domain (Homo sapiens, UniProt O60674)", "Endpoint Result": 9.15}
{"Molecule": "CSc1cnn(C2(CC#N)CN(c3cccn4nc(Nc5cnn(CC(=O)N6CCN(C)CC6)c5)nc34)C2)c1", "Tested On": "isolated recombinant JAK2 kinase domain (Homo sapiens, UniProt O60674)", "Endpoint Result": 9.70}

---

Below: a set of entries, each annotated with reported Ki.
# Tested On: isolated recombinant JAK1 kinase domain (Homo sapiens, UniProt P23458)
# Construct: isolated recombinant JAK1 and JAK2 kinase domain
# Sequence (P23458 875-1153 limits assumed): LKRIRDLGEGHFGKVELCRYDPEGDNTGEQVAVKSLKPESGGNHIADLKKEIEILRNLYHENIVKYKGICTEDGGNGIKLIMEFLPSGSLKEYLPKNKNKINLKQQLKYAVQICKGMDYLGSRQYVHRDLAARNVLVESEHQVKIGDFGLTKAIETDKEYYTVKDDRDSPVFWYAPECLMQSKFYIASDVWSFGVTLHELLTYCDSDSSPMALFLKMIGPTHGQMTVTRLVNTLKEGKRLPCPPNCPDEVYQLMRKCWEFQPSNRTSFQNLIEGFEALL
# Measurement Protocol: JAK enzyme assay, JAK1 kinase domain (Caliper LabChip)
# Format: biochemical
# Run Conditions: 1.5 nM JAK1, ATP 25 μM, Morrison tight binding model

{"Molecule": "CCc1cnn(C2(CC#N)CN(c3cccn4nc(Nc5ccc(C(=O)N6CCN(C7COC7)CC6)cc5)nc34)C2)c1", "Tested On": "isolated recombinant JAK1 kinase domain (Homo sapiens, UniProt P23458)", "Ki [pM]": 2200}
{"Molecule": "COc1cnn(C2(CC#N)CN(c3cccn4nc(Nc5cnn(C)c5)nc34)C2)c1", "Tested On": "isolated recombinant JAK1 kinase domain (Homo sapiens, UniProt P23458)", "Ki [pM]": 500}
{"Molecule": "CN1CCN(C(=O)Cn2cc(Nc3nc4c(N5CC(CC#N)(n6cc(F)cn6)C5)cccn4n3)cn2)CC1", "Tested On": "isolated recombinant JAK1 kinase domain (Homo sapiens, UniProt P23458)", "Ki [pM]": 4400}
{"Molecule": "CN1CCN(C(=O)c2cc(Nc3nc4c(N5CC(CC#N)(n6cc(C(F)(F)F)cn6)C5)cccn4n3)ccn2)CC1", "Tested On": "isolated recombinant JAK1 kinase domain (Homo sapiens, UniProt P23458)", "Ki [pM]": 700}
{"Molecule": "N#CCC1(n2cc(Br)cn2)CN(c2cccn3nc(Nc4cn[nH]c4)nc23)C1", "Tested On": "isolated recombinant JAK1 kinase domain (Homo sapiens, UniProt P23458)", "Ki [pM]": 200}
{"Molecule": "CN1CCN(C(=O)Cn2cc(Nc3nc4c(N5CC(CC#N)(c6ccccc6)C5)cccn4n3)cn2)CC1", "Tested On": "isolated recombinant JAK1 kinase domain (Homo sapiens, UniProt P23458)", "Ki [pM]": 300}
{"Molecule": "CCc1cnn(C2(CC#N)CN(c3cccn4nc(Nc5cnn(CC(=O)N6CCN(C7CCOCC7)CC6)c5)nc34)C2)c1", "Tested On": "isolated recombinant JAK1 kinase domain (Homo sapiens, UniProt P23458)", "Ki [pM]": 400}
{"Molecule": "N#CCC1(c2cccc(Cl)c2)CN(c2cccn3nc(Nc4cnn(CC(=O)N5CCN(C6COC6)CC5)c4)nc23)C1", "Tested On": "isolated recombinant JAK1 kinase domain (Homo sapiens, UniProt P23458)", "Ki [pM]": 300}
{"Molecule": "CCc1cnn(C2(CC#N)CN(c3cccn4nc(Nc5ccc(C(=O)N(C)CC6CCN(C)CC6)cc5)nc34)C2)c1", "Tested On": "isolated recombinant JAK1 kinase domain (Homo sapiens, UniProt P23458)", "Ki [pM]": 300}
{"Molecule": "CCc1cnn(C2(CC#N)CN(c3cccn4nc(Nc5cnn(CC(=O)N6CCN(CCNC(=O)CC78CC9CC(CC(C9)C7)C8)CC6)c5)nc34)C2)c1", "Tested On": "isolated recombinant JAK1 kinase domain (Homo sapiens, UniProt P23458)", "Ki [pM]": 400}
{"Molecule": "CN1CCN(C(=O)Cn2cc(Nc3nc4c(N5CC(CC#N)(n6cc(-c7ccccc7)cn6)C5)cccn4n3)cn2)CC1", "Tested On": "isolated recombinant JAK1 kinase domain (Homo sapiens, UniProt P23458)", "Ki [pM]": 1100}
{"Molecule": "CCc1cnn(C2(CC#N)CN(c3cccn4nc(Nc5ccc6c(c5)CCN([C@@H]5CCOC5)C6)nc34)C2)c1 (stereo in doubt)", "Tested On": "isolated recombinant JAK1 kinase domain (Homo sapiens, UniProt P23458)", "Ki [pM]": 400}
{"Molecule": "Cn1cc(Nc2nc3c(N4CC(CC#N)(n5cc(C(F)(F)F)cn5)C4)cccn3n2)cn1", "Tested On": "isolated recombinant JAK1 kinase domain (Homo sapiens, UniProt P23458)", "Ki [pM]": 300}
{"Molecule": "CCc1cnn(C2(CC#N)CN(c3cccn4nc(Nc5ccc(C(=O)N(C)CC6CCN(C7COC7)CC6)cc5)nc34)C2)c1", "Tested On": "isolated recombinant JAK1 kinase domain (Homo sapiens, UniProt P23458)", "Ki [pM]": 400}
{"Molecule": "CCc1cnn(C2(CC#N)CN(c3cccn4nc(Nc5cn[nH]c5)nc34)C2)c1", "Tested On": "isolated recombinant JAK1 kinase domain (Homo sapiens, UniProt P23458)", "Ki [pM]": 17500}
{"Molecule": "CCc1cnn(C2(CC#N)CN(c3cccn4nc(Nc5ccc(C(=O)N6CCC(N7CCOCC7)CC6)cc5)nc34)C2)c1", "Tested On": "isolated recombinant JAK1 kinase domain (Homo sapiens, UniProt P23458)", "Ki [pM]": 400}
{"Molecule": "CCc1cnn(C2(CC#N)CN(c3cccn4nc(Nc5cnn(CC(=O)N6CCC(CN7CCN(C)CC7)CC6)c5)nc34)C2)c1", "Tested On": "isolated recombinant JAK1 kinase domain (Homo sapiens, UniProt P23458)", "Ki [pM]": 400}
{"Molecule": "Cc1cc(Cl)ccc1C1(CC#N)CN(c2cccn3nc(Nc4cnn(CC(=O)N5CCN(C)CC5)c4)nc23)C1", "Tested On": "isolated recombinant JAK1 kinase domain (Homo sapiens, UniProt P23458)", "Ki [pM]": 400}
{"Molecule": "CN1CCN(C(=O)Cn2cc(Nc3nc4c(N5CC(CC#N)(n6cc(C7CCCCC7)cn6)C5)cccn4n3)cn2)CC1", "Tested On": "isolated recombinant JAK1 kinase domain (Homo sapiens, UniProt P23458)", "Ki [pM]": 1000}
{"Molecule": "CCc1cnn(C2(CC#N)CN(c3cccn4nc(Nc5ccc(C(=O)NCc6ccc(C)nc6)cc5)nc34)C2)c1", "Tested On": "isolated recombinant JAK1 kinase domain (Homo sapiens, UniProt P23458)", "Ki [pM]": 300}
{"Molecule": "CN(CC1(C#N)CC1)C1CCN(C(=O)Cn2cc(Nc3nc4c(N5CC(CC#N)(c6cccc(Cl)c6)C5)cccn4n3)cn2)CC1", "Tested On": "isolated recombinant JAK1 kinase domain (Homo sapiens, UniProt P23458)", "Ki [pM]": 300}
{"Molecule": "Cn1cc(Nc2nc3c(N4CC(CC#N)(n5cc(Br)cn5)C4)cccn3n2)cn1", "Tested On": "isolated recombinant JAK1 kinase domain (Homo sapiens, UniProt P23458)", "Ki [pM]": 300}
{"Molecule": "CCc1cnn(C2(CC#N)CN(c3cccn4nc(Nc5ccc(C(=O)NCCCN6CCOCC6)cc5)nc34)C2)c1", "Tested On": "isolated recombinant JAK1 kinase domain (Homo sapiens, UniProt P23458)", "Ki [pM]": 500}
